# ASSAY_NOTES: Extrapolated human dosimetry (OLINDA/EXM, ICRP-89 phantoms)
# CONDITION_CONTEXT: ICRP 89 Adult Male, extrapolated
# Experimental: To address inter-animal variability, the TIACs for each source organ were calculated from both the mean nTACs and the nTACs obtainend from fitting the mean ± 1 standard deviation (SD) of the normalized time-activity data, providing upper and lower bounds. […] The TIACs, for [177Lu]Lu-DOTAGA.Glu.(FAPI)2 and [177Lu]Lu-DO3A.Glu.(FAPI)2, were determined by time integration of the nTACs. […]
REPORTED_ENDPOINT: Absorbed dose (AD average) Urinary Bladder Wall

Previously resolved entries follow.
| COMPOUND | VALUE_MEASURED |
| --- | --- |
| N#C[C@@H]1CC(F)(F)CN1C(=O)CNC(=O)c1ccnc2ccc(OCCCCNC(=O)CC[C@H](NC(=O)CN3CCN(CC(=O)[O-])CCN(CC(=O)[O-])CCN(CC(=O)[O-])CC3)C(=O)NCCCCOc3ccc4nccc(C(=O)NCC(=O)N5CC(F)(F)C[C@H]5C#N)c4c3)cc12.[161Tb+3] [[^161Tb]Tb-DO3A.Glu.(FAPI)2] | 2.81E-02 mGy/Mbq |
| N#C[C@@H]1CC(F)(F)CN1C(=O)CNC(=O)c1ccnc2ccc(OCCCCNC(=O)CC[C@H](NC(=O)CN3CCN(CC(=O)[O-])CCN(CC(=O)[O-])CCN(CC(=O)[O-])CC3)C(=O)NCCCCOc3ccc4nccc(C(=O)NCC(=O)N5CC(F)(F)C[C@H]5C#N)c4c3)cc12.[177Lu+3] [[^177Lu]Lu-DO3A.Glu.(FAPI)2] | 2.07E-02 mGy/Mbq |

Entry N#C[C@@H]1CC(F)(F)CN1C(=O)CNC(=O)c1ccnc2ccc(OCCCCNC(=O)CC[C@H](NC(=O)CCC(C(=O)O)N3CCN(CC(=O)[O-])CCN(CC(=O)[O-])CCN(CC(=O)[O-])CC3)C(=O)NCCCCOc3ccc4nccc(C(=O)NCC(=O)N5CC(F)(F)C[C@H]5C#N)c4c3)cc12.[177Lu+3] (stereo partly drawn) [[^177Lu]Lu-DOTAGA.Glu.(FAPI)2] has what Absorbed dose (AD average) Urinary Bladder Wall?
2.03E-02 mGy/Mbq

// provenance: paper PMC12860872
